# Tested on: ST8814
# Protocol notes: relative IC50 (inflection point of fitted dose-response curve, CellTox-Green cytotoxicity, 72 h; top asymptote may be below 50%); higher = less potent
Recorded relative IC50, one value per entry.

{"columns": ["Compound", "Endpoint unit", "Bound type", "relative IC50"],
 "data": [
  ["COc1cc2nccc(Oc3ccc(NC(=O)Nc4cc(C)on4)c(Cl)c3)c2cc1OC [Tivozanib]", "µM", "=", 1.9],
  ["C[C@@]1(C(=O)Nc2ccc(F)nc2)CCCN1c1nc(Nc2cc(C3CC3)n[nH]2)c2cccn2n1", "µM", "=", 0.312],
  ["Nc1ccn([C@@H]2O[C@H](CO)[C@@H](O)C2(F)F)c(=O)n1 [Gemcitabine]", "µM", "=", 0.00386],
  ["COc1ncc(-c2ccc3nccc(-c4ccnnc4)c3c2)cc1NS(=O)(=O)c1ccc(F)cc1F", "µM", "=", 0.161],
  ["Cc1ccc(-c2cc(C(F)(F)F)nn2-c2ccc(S(N)(=O)=O)cc2)cc1 [Celecoxib]", "µM", ">", 10],
  ["C=CCNC1=C2C[C@@H](C)C[C@H](OC)[C@H](O)[C@@H](C)/C=C(\\C)[C@H](OC(N)=O)[C@@H](OC)/C=C\\C=C(/C)C(=O)NC(=CC1=O)C2=O [Tanespimycin]", "µM", "=", 0.729],
  ["Cc1nc(Nc2ncc(C(=O)Nc3c(C)cccc3Cl)s2)cc(N2CCN(CCO)CC2)n1 [Dasatinib]", "µM", "=", 0.0294],
  ["Nc1nc(Cl)nc2c1ncn2[C@@H]1O[C@H](CO)[C@@H](O)[C@@H]1F [Clofarabine]", "µM", "=", 0.814],
  ["O=C(Cc1ccc(-c2ccc(OCCN3CCOCC3)cc2)cn1)NCc1ccccc1 [KX2-391]", "µM", "=", 0.0338],
  ["O=P1(N(CCCl)CCCl)NCCCO1 (stereo not drawn) [Cyclophosphamide]", "µM", ">", 40],
  ["O=C(c1ccc(C(=O)N2CCC(N3CCCC3)CC2)c(Nc2ccccc2)c1)N1CCC(N2CCCC2)CC1 [UNC1215]", "µM", ">", 30],
  ["Cc1cc(C(C)Nc2ccccc2)c2nc(N3CCOCC3)cc(=O)n2c1 (stereo not drawn) [TGX-221]", "µM", ">", 10],
  ["CN1CCC(COc2cnc(-c3cccc(Cn4nc(-c5cccc(C#N)c5)ccc4=O)c3)nc2)CC1", "µM", ">", 1],
  ["COc1cc2c(NC3CCN(C(C)C)CC3)nc(C3CCCCC3)nc2cc1OCCCN1CCCC1 [UNC0638]", "µM", "=", 2.23],
  ["CN(C)C(=N)NC(=N)N [Metformin aq]", "µM", ">", 100],
  ["O=S(=O)(c1cccc2cnccc12)N1CCCNCC1 [Fasudil]", "µM", ">", 50],
  ["CN(C)/N=N/c1[nH]cnc1C(N)=O [Dacarbazine]", "µM", ">", 10],
  ["COCC1(CO)C(=O)C2CCN1CC2 (stereo not drawn) [Prima-1 Met]", "µM", ">", 10]
]}
